experiment: soluble on expression in E. coli; label from the status in PepcDB or PDB records

{"Ordered Residues": "DLPIADVQGSLDTRHIAIDRVGIKAIRHPVVVADKGGGSQHTVAQFNMYVNLPHNFKGTHMSRFVEILNSHEREISVESFEEILRSMVSRLESDSGHIEMAFPYFINKSAPVSGVKSLLDYEVTFIGEIKHGNQYSFTMKVIVPVTSLCPCSKKISDYGAHNQRSHVTISVRTNSFIWIEDIIRIAEEQASCELYGLLKRPDEKYVTERAYNNPKFVEDIVRDVAEVLNHDDRIDAYIVESENFESIHNHSAYA", "soluble on expression in E. coli": "not soluble"}
{"Ordered Residues": "MGSDKIHHHHHHMIPEEIYKILRKQRYQIDGHTAVKLCGWVRKKMLEDKNCYKSKFYGIETHRCIQCTPSVIWCQQNCIFCWRVLPRDIGIDISQIKEPKWEEPEVVYEKILAMHKRIIMGYAGVLDRVGEKKFKEALEPKHVAISLSGEPTLYPYLDELIKIFHKNGFTTFVVSNGILTDVIEKIEPTQLYISLDAYDLDSYRRICGGKKEYWESILNTLDILKEKKRTCIRTTLIRGYNDDILKFVELYERADVHFIELKSYMHVGYSQKRLKKEDMLQHDEILKLAKMLDENSSYKLIDDSEDSRVALLQNENRKINPKL", "soluble on expression in E. coli": "not soluble"}
{"Ordered Residues": "MGSDKIHHHHHHMRKLLNTLYVTSPNTYLSLDGENIVILKDDVEALRVPLHNLESIIAFGYTGASPALMGACAKRNISLSFMKSNGKFLGRVVGEVRGNVTLRKAQYRLSDDEATSHRIAKSFILGKVYNSRWVVERATRDHGARLDVEKLKGVCQTLANALRLVENSKDLDQLRGVEGEAAAQYFRVLDDLILQQKEDFYFKCRNKRPPLDNVNAMLSFIYTLLAHDAAAALETVGLDPYVGFLHRDRPGRISLALDLMEELRAVFADRFVLSLINRREVNPSGFTRMENGAVVMDDDTRRDILKAWQSRKQEEIKHPFLQEKMEWGLVPYAQAMLLARFIRGDLDGYPAFMWK", "soluble on expression in E. coli": "not soluble"}

###

test: soluble on expression in E. coli; label from the status in PepcDB or PDB records
Readout Label: soluble on expression in E. coli

{"Ordered Residues": "GMSNALATLASPADDIAFYEERLRAAMLTGDLKGLETLLADDLAFVDHTGCVKTKQTHLEPYRAGLLKLSRLDLSDAVVRAAGEDGRVVVVRAVTAGVYDGEAFTETLRFTRIWRRTQGPAGWKLVAGHCSVIL", "Readout Label": "soluble on expression in E. coli", "Test Value": "soluble"}
{"Ordered Residues": "SNAMTTKRVKKMGKEEMKEMFDLVIYAFNQEPTAERQERFEKLLSHTQSYGFLIDEQLTSQVMATPFQVNFHGVRYPMAGIGYVASYPEYRGEGGISAIMKEMLADLAKQKVALSYLAPFSYPFYRQYGYEQTFEQAEYTIKTEDWPRVKRVPGTIKRVSWADGKEVIKDVYLENQRAHSGGVIRETWWLDYTLNRASKPNNQAIYYSSEGKAEGYVIYRIAAGTFEIVEWNYLTNTAFKALAGFIGSHSGSVQSFHWINGFAGKDLNDLMPTPAASVKILPYMMARIVELQTFLEKYPFQSGEKETYSLEIEDSYGPWNEGIWTITIDEQGKATVTKGAAEKEGTAALKADIQTWTQLFLGYRSAETLSFYERLQGDATIAQRLGQRLVKGMPILEDYF", "Readout Label": "soluble on expression in E. coli", "Test Value": "soluble"}
{"Ordered Residues": "LGIAGLRYTFTFAVATAPSELLNITWYSAVSAAFNGALKFSITPLLPLGPITDERVEVSITALTPLSGVRSTSTALTPVRLCSAFAILFTDTKAEKLEFFEDTTERVDGDAVIPHTVNSETAALPTPFS", "Readout Label": "soluble on expression in E. coli", "Test Value": "not soluble"}
{"Ordered Residues": "MGSDKIHHHHHHMEMKMQQIDILRKLSEVWRLFGDMPDDTTLSVDLAALYLGISVKTLARYRQSGGGPSYIQYQSEGSQARNQRVNYLLKDLRSWRDNHKVSNTMHAAQVRGLAFDSLLDFCKPQPFWQVTDKSSSRDKSKILSHALTIPDDDFKKKLLEPNADIVWISIEEALFNEWQTADERQKWNDIFKEFLNEIISASNAAQEKHILNAILK", "Readout Label": "soluble on expression in E. coli", "Test Value": "not soluble"}
